test system: HOP-62 NSCLC; assay: NCI tumour cell line growth inhibition, 48 h; in the data active = GI50 below about 0.43 µM; inactive = the rest
Outcomes: yes (1) for active, no (0) for inactive

* O=C1Nc2cc(OC(F)(F)F)ccc2Oc2ccc(-c3ccnc(N4CC[C@H](O)C4)c3)cc21 | yes (1)
* Nc1nc(N)c2c(n1)NC(c1ccc(C(F)(F)F)cc1)CC(c1ccc(Nc3nc(NCCO)nc(Nc4ccc(Cl)cc4)n3)cc1)=N2 (centres undefined) | no (0)
* C[C@]12CC[C@H](O)C[C@@H]1CC[C@@H]1[C@@H]2CC[C@@]2(C)[C@H]1CC[C@@H]2[C@](C)(O)CCc1ccc(F)cc1 | no (0)
* CS(=O)(=O)Nc1cc(-c2ccc3ncc(C#N)c(NCc4ccccc4)c3c2)cnc1Cl | yes (1)
